Reference for the values: patent US20160046618A1

Target: Recombinant Cat D (Homo sapiens (Human))
Test: In vitro enzymatic Cathepsin D (Cat D) FRET assay
Type: biochemical
Conditions: Cathepsin D FRET enzyme assay; read-out: IC50 IP (μM) CatD
Measurement label: IC50 (µM)

(a) COC[C@]12C[C@H]1[C@@](C)(c1cc(Nc3ncnc4cc(OC)cnc34)cc(F)c1F)N=C(N)S2
(b) NC1=N[C@](CF)(c2cc(Nc3nncc4cc(Br)cnc34)ccc2F)C2C[C@@H]2S1 (stereo in doubt)
Query: Looking only at measured IC50, which entry is lower, a or b ? Reply with the label of the item you choose.
Reply: b
(b: 738 µM, a: 1230 µM)

(I) Cc1cc(C#N)cnc1C(=O)Nc1ccc(F)c([C@@]2(CF)N=C(N)S[C@H]3C[C@H]32)c1
(II) C[C@]1(c2cc(Nc3ncnc4cc(C#N)cnc34)cc(F)c2F)N=C(N)S[C@@]2(CO)C[C@H]21
Query: Looking only at measured IC50, which entry is lower, I or II ? Reply with the label of the item you choose.
Reply: II
(II: 227 µM, I: 437 µM)

====

Target: Recombinant Cat D (Homo sapiens (Human))
Experiment: In vitro enzymatic Cathepsin D (Cat D) FRET assay
Assay type: biochemical
Details: read-out: IC50 IP (μM) CatD
Method: In Vitro Enzymatic Cathepsin D (Cat D) FRET (Fluorescence Resonance Energy Transfer) Assay Recombinant Cat D was expressed in CHO cells. The assay buffer for CathepsinD is 0.05 M citrate pH 3.5, 10% DMSO final, 5 mM CHAPS. […] The FRET assay is terminated with by addition of Tris buffer, which raises the pH to neutrality, and the fluorescence is determined. […] Proteolytic cleavage of the FRET substrate releases quenching of fluorescence (Cat D excitation 500 nm and emission 580 nm).
Measurement label: IC50 (µM)

// below: answered molecules
Molecule	Reported
C#CCOc1cnc(C(=O)Nc2ccc(F)c([C@@]3(CF)N=C(N)S[C@@]4(/C=C/C(=O)N(C)C)C[C@H]43)c2)cn1 [Example 774]	7.95
C#CCOc1cnc(C(=O)Nc2cc(C)c(F)c([C@@]3(C)N=C(N)S[C@@]4(COC)C[C@H]43)c2)cn1 [Example 1043]	196
C[C@]1(c2cc(NC(=O)c3ncc(OCC(F)(F)F)cc3Cl)cc(F)c2F)N=C(N)S[C@@]2(CF)C[C@H]21 [Example 693]	1200
COC[C@]12C[C@H]1[C@@](C)(c1cc(NC(=O)c3cnc(OCC(C)OC)cn3)cc(F)c1F)N=C(N)S2 (stereo partly shown) [Example 1023]	1360

(P) C#C[C@H](C)Oc1cnc(C(=O)Nc2ccc(F)c([C@@]3(C)N=C(N)S[C@@]4(CF)C[C@H]43)c2)c(C)c1 [Example 651]
(Q) C#CCOc1cnc(C(=O)Nc2ccc(F)c([C@@]3(CF)N=C(N)S[C@@]4(c5ocnc5C)C[C@@H]34)c2)cn1 [Example 784]
Query: Looking only at measured IC50, which entry is lower, P or Q ? Reply with the label of the item you choose.
Reply: Q
(Q: 166 µM, P: 1030 µM)

====

Target: Recombinant Cat D (Homo sapiens (Human), UniProt P07339)
Sequence (P07339 65-412): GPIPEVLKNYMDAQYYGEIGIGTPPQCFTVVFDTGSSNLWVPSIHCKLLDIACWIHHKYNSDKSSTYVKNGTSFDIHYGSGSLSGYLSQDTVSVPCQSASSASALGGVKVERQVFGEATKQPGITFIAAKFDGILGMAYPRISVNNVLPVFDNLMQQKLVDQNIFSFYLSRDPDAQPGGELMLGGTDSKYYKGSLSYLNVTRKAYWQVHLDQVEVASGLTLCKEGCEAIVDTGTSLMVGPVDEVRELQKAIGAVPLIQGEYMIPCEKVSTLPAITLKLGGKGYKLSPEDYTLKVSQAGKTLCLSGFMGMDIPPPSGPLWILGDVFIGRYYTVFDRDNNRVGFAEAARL
Assay: In vitro enzymatic Cathepsin D (Cat D) FRET assay
Type: biochemical
Conditions: read-out: IC50 IP (μM) CatD
Measurement label: IC50 (µM)

Compound	IC50 (µM)
C#CCOc1cnc2c(Nc3ccc(F)c([C@@]4(C)N=C(N)S[C@@]5(C(=O)N6CCCC6)C[C@H]54)c3)nccc2n1 [Example 632]	961
C[C@H](Oc1cnc2c(Nc3cc(F)c(F)c([C@@]4(C)N=C(N)S[C@@]5(C(F)F)C[C@@H]45)c3)nccc2n1)c1ncco1 [Example 892]	873

====

Target: human recombinant BACE1 (Homo sapiens (Human))
Sequence (P56817 46-501): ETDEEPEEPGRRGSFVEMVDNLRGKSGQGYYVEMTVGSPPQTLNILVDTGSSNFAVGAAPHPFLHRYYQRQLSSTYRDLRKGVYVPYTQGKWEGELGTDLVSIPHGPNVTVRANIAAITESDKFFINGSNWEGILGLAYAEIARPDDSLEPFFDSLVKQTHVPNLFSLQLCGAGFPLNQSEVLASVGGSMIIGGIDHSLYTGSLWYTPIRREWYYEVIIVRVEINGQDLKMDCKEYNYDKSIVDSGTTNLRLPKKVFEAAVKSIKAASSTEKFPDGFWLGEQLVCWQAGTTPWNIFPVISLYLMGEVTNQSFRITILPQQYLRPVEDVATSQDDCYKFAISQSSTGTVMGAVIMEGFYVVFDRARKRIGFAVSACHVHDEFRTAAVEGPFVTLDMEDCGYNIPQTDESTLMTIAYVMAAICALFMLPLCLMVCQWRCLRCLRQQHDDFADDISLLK
Test: In vitro enzymatic BACE1 FRET assay
Assay type: biochemical
Details: read-out: IC50 IP (μM) BACE1 enzyme
Measurement label: IC50 (µM)

Compound	Reported
CC#CCOc1cnc2c(Nc3cc(F)c(F)c([C@@]4(C)N=C(N)S[C@@]5(COC)C[C@H]54)c3)nccc2c1 [Example 903]	0.00195

(I) COC[C@]12C[C@H]1[C@@](C)(c1cc(Nc3nccc4cc(OCC(F)(F)C(F)F)cnc34)cc(F)c1F)N=C(N)S2 [Example 731]
(II) C[C@]1(c2cc(Nc3ncnc4cc(OCc5ncco5)cnc34)cc(F)c2F)N=C(N)S[C@@]2(C(=O)N3CCCC3)C[C@H]21 [Example 936]
(III) C[C@]1(c2cc(Nc3nccc4nc(OCc5ncco5)cnc34)cc(F)c2F)N=C(N)S[C@@]2(C(F)F)C[C@@H]12 [Example 866]
(IV) C#CCOc1cnc2c(Nc3ccc(F)c([C@@]4(C)N=C(N)S[C@@]5(C(=O)NC6CC6)C[C@H]54)c3)ncnc2c1 [Example 791]
(V) Cc1cnc(COc2cnc3c(Nc4cc(F)c(F)c([C@@]5(C)N=C(N)S[C@@]6(C(F)F)C[C@@H]56)c4)nccc3n2)o1 [Example 888]
Query: Rank entries according to their IC50, from the largest number down. In your reply, arrange the labels in the requested order.
Reply: I, II, V, III, IV

====

Target: human recombinant BACE2 (Homo sapiens (Human), UniProt Q9Y5Z0)
Sequence (Q9Y5Z0 63-518): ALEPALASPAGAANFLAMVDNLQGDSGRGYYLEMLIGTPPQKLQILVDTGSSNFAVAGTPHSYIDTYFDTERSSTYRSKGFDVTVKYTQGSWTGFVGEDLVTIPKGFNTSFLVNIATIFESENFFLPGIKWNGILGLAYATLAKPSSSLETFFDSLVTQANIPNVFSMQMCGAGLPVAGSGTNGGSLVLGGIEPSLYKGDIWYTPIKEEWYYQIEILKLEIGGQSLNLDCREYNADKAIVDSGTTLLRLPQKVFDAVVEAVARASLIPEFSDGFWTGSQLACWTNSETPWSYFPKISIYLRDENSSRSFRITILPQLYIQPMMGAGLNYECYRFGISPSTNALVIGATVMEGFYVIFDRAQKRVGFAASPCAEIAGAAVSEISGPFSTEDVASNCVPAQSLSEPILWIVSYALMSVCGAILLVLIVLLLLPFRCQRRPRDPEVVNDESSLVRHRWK
Experiment: In vitro enzymatic BACE2 FRET assay
Type: biochemical
Settings: BACE2 FRET enzyme assay; read-out: IC50 IP (μM) BACE2 enzyme
Measurement label: IC50 (µM)

Compound	Reported
COC(=O)[C@]12C[C@H]1[C@@](C)(c1cc(NC(=O)c3ccc(Cl)cn3)cnc1F)N=C(N)S2	0.00824
NC1=N[C@](CF)(c2cc(Nc3nccc4nc(OCc5ncco5)cnc34)ccc2F)C2C[C@@H]2S1 (stereo in doubt)	0.27

(a) Cc1cc(OC(F)F)cnc1C(=O)Nc1cc(F)c(F)c([C@@]2(CF)N=C(N)S[C@H]3C[C@H]32)c1
(b) NC1=N[C@](CF)(c2cc(NC(=O)c3ccc(Cl)cn3)ccc2F)[C@@H]2C[C@@H]2S1
Query: Looking only at measured IC50, which entry is lower, a or b ? Reply with the label of the item you choose.
Reply: b

(a) C#CCOc1cnc(C(=O)Nc2ccc(F)c([C@@]3(C)N=C(N)S[C@@H]4[C@H]3C4(F)F)c2)c(C)n1
(b) NC1=N[C@](CF)(c2cc(NC(=O)c3ccc(Cl)cn3)cc(F)c2F)[C@@H]2C[C@]2(CO)S1
Query: Name the one with the greater IC50 value, either a or b as given. Reply with the label of the item you choose.
Reply: a

(P) C#CCOc1cnc(C(=O)Nc2cc(F)c(F)c([C@@]3(CF)N=C(N)S[C@H]4C[C@H]43)c2)c(C)n1
(Q) COC[C@]12C[C@H]1[C@@](C)(c1cc(Nc3nccc4cc(C#N)cnc34)cc(F)c1F)N=C(N)S2
(R) N#Cc1cnc2c(Nc3ccc(F)c([C@@]4(CF)N=C(N)S[C@H]5CC54)c3)nccc2c1 (stereo in doubt)
(S) C#CCOc1cnc(C(=O)Nc2cc(F)c(F)c([C@@]3(CF)N=C(N)S[C@@]4(CO)C[C@H]43)c2)cn1
(T) N#Cc1cnc2c(Nc3ccc(F)c([C@@]4(CF)N=C(N)S[C@@]5(CF)C[C@H]54)c3)ncnc2c1
Query: Rank entries according to their IC50, from the largest number down. In your reply, arrange the labels in the requested order.
Reply: T, P, S, R, Q

(A) COC[C@@]12C[C@@H]1[C@@](CF)(c1cc(NC(=O)c3ccc(Cl)cn3)cc(F)c1F)N=C(N)S2
(B) C[C@]1(c2cc(Nc3ncnc4cc(C#N)cnc34)cc(F)c2F)N=C(N)S[C@@]2(C(F)F)C[C@@H]12
Query: Looking only at measured IC50, which entry is lower, A or B ? Reply with the label of the item you choose.
Reply: A

====

Molecular target: Recombinant Cat D (Homo sapiens (Human), UniProt P07339)
Assay: In vitro enzymatic Cathepsin D (Cat D) FRET assay
Assay type: biochemical
Conditions: read-out: IC50 IP (μM) CatD
Measurement label: IC50 (µM)

Chemical string	Tgt	IC50 [µM]
COC[C@H](C)Oc1cnc(C(=O)Nc2cc(F)c(F)c([C@@]3(C)N=C(N)S[C@@]4(COC)C[C@H]43)c2)cn1	Recombinant Cat D (Homo sapiens (Human), UniProt P07339)	884
COC[C@]12C[C@H]1[C@@](C)(c1cc(NC(=O)c3cnc(OCc4nnc(C)o4)cn3)cc(F)c1F)N=C(N)S2	Recombinant Cat D (Homo sapiens (Human), UniProt P07339)	785

====

Biological target: human recombinant BACE1 (Homo sapiens (Human))
Assay: In vitro enzymatic BACE1 FRET assay
Assay type: biochemical
Conditions: read-out: IC50 IP (μM) BACE1 enzyme
Measurement label: IC50 (µM)

Compound	Measurement label	Reported
C#CCOc1cnc2c(Nc3ccc(F)c([C@@]4(CF)N=C(N)S[C@@]5(/C=C/C(=O)N(C)C)C[C@H]54)c3)ncnc2c1 [Example 776]	IC50	0.0012
COC[C@]12C[C@H]1[C@@](C)(c1cc(NC(=O)c3cnc(OCC(C)OC)cn3)cc(F)c1F)N=C(N)S2 (stereo partly shown) [Example 1023]	IC50	0.00319
Cc1nc(OCc2ncco2)cnc1C(=O)Nc1cc(F)c(F)c([C@@]2(C)N=C(N)S[C@@]3(CF)C[C@H]32)c1 [Example 803]	IC50	0.000643
COC[C@]12C[C@H]1[C@@](C)(c1cc(NC(=O)c3cnc(OCc4nccs4)cn3)cc(F)c1F)N=C(N)S2 [Example 1034]	IC50	0.0014

(1) C#CCOc1cnc(C(=O)Nc2cc(F)c(F)c([C@@]3(C)N=C(N)S[C@@]4(COCC)C[C@H]43)c2)cn1 [Example 1046]
(2) CC#C[C@]12C[C@H]1[C@@](CF)(c1cc(Nc3nccc4nc(OCc5ncco5)cnc34)ccc1F)N=C(N)S2 [Example 958]
(3) COC[C@]12C[C@H]1[C@@](C)(c1cc(NC(=O)c3cnc(OCC4(C)CC4)cn3)cc(F)c1F)N=C(N)S2 [Example 1061]
Query: Put these in order: smallest IC50 first, largest last. In your reply, arrange the labels in the requested order.
Reply: 1, 2, 3
